Please go through the items and note down their normalized growth.
- assay-explanation: chemical genetic growth profiling, strain panel (AID 1159580);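 also: tested at 20 µM; growth read once vehicle control cultures reached saturation at 30 °C; 1 = growth at the plate median or of vehicle wells; lower values mean less growth of the strain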
- condition-label: S. cerevisiae deletion strains, growth OD, locus YML016C, strain PPZ1, hits give low values
The campaign covered roughly 5,500 compounds. About 2,000 (36%) were called active. About 18% were inconclusive and are not listed. The list shows a part of the results.
One number for each entry.

Value sought for every listed molecule: normalized growth.
1. Cn1nnnc1SCC1=C(C(=O)O)N2C(=O)C(NC(=O)C(O)c3ccccc3)C2SC1 (stereo unspecified)
2. COc1ccc(-c2cc(=O)c3ccccc3o2)cc1
3. COc1ccc(-c2cc(=O)c3ccccc3o2)cc1OC
4. CCCCCCCCCCCCCCCC[n+]1ccccc1
5. CC(C)[C@]12O[C@H]1[C@@H]1O[C@@]13[C@@]1(C)CCC4=C(COC4=O)[C@@H]1C[C@@H]1O[C@@]13C2=O
6. Clc1ccc(Cl)cc1

[1.01, 0.89, 1.05, 0.0531, 1.01, 1.01]

This collection of values is drawn from PubChem BioAssay AID1159580.
